SYSTEM: Neuronal acetylcholine receptor subunit alpha-3 (Homo sapiens)
Sequence (P32297 whole entry): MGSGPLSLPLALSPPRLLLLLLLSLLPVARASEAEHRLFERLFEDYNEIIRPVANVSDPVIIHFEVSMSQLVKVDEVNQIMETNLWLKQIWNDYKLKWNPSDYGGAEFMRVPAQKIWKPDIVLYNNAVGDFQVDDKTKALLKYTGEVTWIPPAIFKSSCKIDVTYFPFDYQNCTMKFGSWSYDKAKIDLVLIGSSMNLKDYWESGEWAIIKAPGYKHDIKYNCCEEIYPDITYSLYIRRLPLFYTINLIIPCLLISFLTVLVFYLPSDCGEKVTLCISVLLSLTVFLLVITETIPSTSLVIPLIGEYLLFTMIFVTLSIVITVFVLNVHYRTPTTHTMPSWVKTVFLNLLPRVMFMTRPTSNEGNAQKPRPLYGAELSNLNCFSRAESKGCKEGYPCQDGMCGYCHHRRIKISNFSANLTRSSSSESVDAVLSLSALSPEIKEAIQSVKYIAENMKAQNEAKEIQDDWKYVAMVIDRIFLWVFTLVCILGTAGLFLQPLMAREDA
ASSAY_DETAILS: Functional activation of human sympathetic ganglionic type nAChRs in IMR-32 cells containing alpha-3 subtype
MEASURED_ATTRIBUTE: pEC50
Reminder that pEC50 means the negative base-10 logarithm of the concentration expressed in mol/L.

STRUCTURE_AS_SMILES: c1cncc(OC[C@@H]2CCN2)c1
pEC50: 6.15

Kindly indicate its recorded pEC50. Item: c1cncc(OC[C@H]2CCN2)c1
5.96

Kindly indicate its recorded pEC50. Item: Clc1ccc(OC[C@@H]2CCCN2)cn1
5.92

This collection of values is drawn from ChEMBL document CHEMBL1131463.
